Each entry below carries its reported Papp A→B at 2 μM.
Biological target: MDR1 (Homo sapiens, UniProt P08183)
Construct: host or cells: MDCK cells
Sequence (P08183 whole entry): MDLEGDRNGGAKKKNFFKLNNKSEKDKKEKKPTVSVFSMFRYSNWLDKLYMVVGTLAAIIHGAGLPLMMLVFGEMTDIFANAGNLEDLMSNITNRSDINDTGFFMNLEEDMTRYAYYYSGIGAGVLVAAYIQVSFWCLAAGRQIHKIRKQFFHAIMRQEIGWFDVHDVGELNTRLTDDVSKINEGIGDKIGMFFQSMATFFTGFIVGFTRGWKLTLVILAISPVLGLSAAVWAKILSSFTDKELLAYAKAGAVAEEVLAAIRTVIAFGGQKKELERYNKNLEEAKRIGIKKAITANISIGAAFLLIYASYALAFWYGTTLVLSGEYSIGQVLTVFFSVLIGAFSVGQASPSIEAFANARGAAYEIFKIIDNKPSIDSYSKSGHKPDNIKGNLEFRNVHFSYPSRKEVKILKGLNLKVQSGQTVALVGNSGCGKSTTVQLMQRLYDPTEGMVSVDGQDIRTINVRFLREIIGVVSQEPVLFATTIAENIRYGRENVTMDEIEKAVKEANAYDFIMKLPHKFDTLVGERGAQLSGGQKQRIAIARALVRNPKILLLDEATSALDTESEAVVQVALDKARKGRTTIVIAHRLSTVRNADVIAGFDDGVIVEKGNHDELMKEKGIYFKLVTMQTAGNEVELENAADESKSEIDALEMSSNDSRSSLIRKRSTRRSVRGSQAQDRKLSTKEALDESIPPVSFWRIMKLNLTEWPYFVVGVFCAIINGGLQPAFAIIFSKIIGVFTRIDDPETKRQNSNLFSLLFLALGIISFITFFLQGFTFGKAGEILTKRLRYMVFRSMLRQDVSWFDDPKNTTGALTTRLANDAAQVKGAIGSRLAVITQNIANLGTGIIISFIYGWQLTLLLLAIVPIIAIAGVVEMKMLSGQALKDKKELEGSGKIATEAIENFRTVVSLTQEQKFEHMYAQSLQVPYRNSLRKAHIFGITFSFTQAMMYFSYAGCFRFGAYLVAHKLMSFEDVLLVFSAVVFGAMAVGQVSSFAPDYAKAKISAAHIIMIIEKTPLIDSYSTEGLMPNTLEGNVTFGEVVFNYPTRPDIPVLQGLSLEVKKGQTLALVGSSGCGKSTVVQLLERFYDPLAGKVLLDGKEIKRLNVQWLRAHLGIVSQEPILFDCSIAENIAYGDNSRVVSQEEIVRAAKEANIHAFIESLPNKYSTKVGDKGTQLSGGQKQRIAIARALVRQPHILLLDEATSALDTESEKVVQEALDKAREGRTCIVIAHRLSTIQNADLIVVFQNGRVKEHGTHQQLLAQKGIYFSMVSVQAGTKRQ
Assay: Bidirectional transport in MDR1-transfected MDCK cell monolayers
Assay type: in vitro ADME
Conditions: dog, MDCK-MDR1; apical-to-basolateral, 2 μM; read-out: A→B apparent permeability
Entry rule: numbers only, all in ×10⁻⁶ cm/s.

stdin: Query Papp A→B at 2 μM on MDR1 (Homo sapiens, UniProt P08183) for O=C1NCc2nc(-c3cnc(N4CC[C@@H](F)C4)cn3)ccc21 [LMD-022]
stdout: 40.6

stdin: What reported Papp A→B at 2 μM corresponds to C[C@H]1O[C@@H](O[C@H]2[C@@H](O)C[C@H](O[C@H]3[C@@H](O)C[C@H](O[C@H]4CC[C@@]5(C)[C@H](CC[C@@H]6[C@@H]5C[C@@H](O)[C@]5(C)[C@@H](C7=CC(=O)OC7)CC[C@]65O)C4)O[C@@H]3C)O[C@@H]2C)C[C@H](O)[C@@H]1O [Digoxin] on MDR1 (Homo sapiens, UniProt P08183)?
stdout: 1.65

stdin: Write down the reported Papp A→B at 2 μM of CC(C)NCC(O)COc1cccc2ccccc12 (stereo not drawn) [Propranolol] , test system: MDR1 (Homo sapiens, UniProt P08183).
stdout: 9.28

====

Target: α-synuclein (α-syn) aggregates in PD brain homogenates (Homo sapiens, UniProt P37840)
Construct: Anterior cingulate cortex tissue from a Parkinson’s disease (PD) case; tissue Banner Sun Health Research Institute (Dr. Thomas Beach); host or cells: post-mortem human PD anterior cingulate cortex homogenate
Test: In vitro competition (Ki) assay vs [3H]asyn-44 in PD brain homogenates
Assay type: binding
Details: 1 nM [3H]asyn-44
Returns: string. Value is yes (1) if measured Ki is below 10 nM, and no (0) if it is greater than or equal to it.

stdin: Below 10 nM on Ki? Entry FC1CCN(c2cnc(-n3cc4sc(-c5cncs5)cc4n3)cn2)C1 (centres unmarked) [LMD-029]
stdout: no (0)

stdin: Problem: For the molecule F[C@@H]1CCN(c2ccc(-n3cc4sc(-c5cccnc5)cc4n3)cn2)C1 [LMD-032] , is Ki under 10 nM?
stdout: no (0)

stdin: Is it true that Ki reported for O=C1NCc2nc(-c3cnc(N4CC[C@@H](F)C4)cn3)ccc21 [LMD-022] is less than 10 nM?
stdout: no (0)

New cases:
stdin: Does the reported Ki of the following molecule sit strictly below 10 nM? F[C@@H]1CCN(c2ccc(-c3ccc4sc(-c5cncs5)cc4n3)cn2)C1 [LMD-006]
stdout: no (0)

stdin: In the record for F[C@@H]1CCN(c2cnc(-c3csc4ccc(-c5cccnc5)nc34)cn2)C1 [LMD-044] , is Ki less than 10 nM?
stdout: yes (1)

====

Molecular target: MDR1 (Homo sapiens, UniProt P08183)
Construct: host or cells: MDCK cells
Assay: Bidirectional transport in MDR1-transfected MDCK cell monolayers
Type: in vitro ADME
Conditions: dog, MDCK-MDR1; basolateral-to-apical, 2 μM; read-out: B→A apparent permeability
Reported property: Papp B→A at 2 μM (×10⁻⁶ cm/s)
Field format: number, assumed ×10⁻⁶ cm/s, no unit text.

stdin: # query: Papp B→A at 2 μM | item CC(C)NCC(O)COc1cccc2ccccc12 (centres unmarked) | system: MDR1 (Homo sapiens, UniProt P08183)
stdout: 8.03

Query compound follows.
stdin: Query for MDR1 (Homo sapiens, UniProt P08183): what Papp B→A at 2 μM does the record show for O=C1NCc2nc(-c3cnc(N4CC[C@@H](F)C4)cn3)ccc21 ?
stdout: 37.6

====

Target: α-synuclein (α-syn) aggregates in PD brain homogenates (Homo sapiens, UniProt P37840)
Construct: Anterior cingulate cortex tissue from a Parkinson’s disease (PD) case; tissue Banner Sun Health Research Institute (Dr. Thomas Beach); host or cells: post-mortem human PD anterior cingulate cortex homogenate
Experiment: Two point screening assay (30 nM and 300 nM) vs [3H]asyn-44 in human PD brain homogenates
Type: binding
Conditions: 30 nM competitor
Reported property: % [3H]asyn-44 remaining at 30 nM (%)
Return type: number; implicit unit %.

Sample answers from the record:
stdin: Would you kindly share the measured % [3H]asyn-44 remaining at 30 nM for Cn1ccc(-c2cc3nn(-c4cnc(N5CCC(F)CC5)cn4)cc3s2)n1 [LMD-066] ?
stdout: 76

stdin: Looking for the measured % [3H]asyn-44 remaining at 30 nM of Cn1ccc(-c2cc3c(cnn3-c3ccc(N4CCC(F)C4)nn3)s2)n1 (stereo not shown) [LMD-072] , can you help?
stdout: 48

stdin: Requested read-out: % [3H]asyn-44 remaining at 30 nM. Entry: FC1CCN(c2ccc(-n3cc4sc(-c5cncs5)cc4n3)cn2)C1 (stereo not shown) [LMD-028]
stdout: 81

stdin: State the recorded % [3H]asyn-44 remaining at 30 nM for this entry: FC1CCN(c2cnc(-c3ccc4sc(-c5cncs5)cc4n3)cn2)CC1 [LMD-062]
stdout: 43

stdin: Can you look up the measured % [3H]asyn-44 remaining at 30 nM of F[C@@H]1CCN(c2cnc(-n3cc4sc(-c5cccnc5)cc4n3)cn2)C1 [LMD-033] for me?
stdout: 51

New cases:
stdin: Which % [3H]asyn-44 remaining at 30 nM is reported for this compound? Fc1cc(-c2ccc3sc(-c4cccnc4)cc3n2)cnc1N1CCCC1 [LMD-002]
stdout: 57

====

Target: α-synuclein (α-syn) aggregates in PD brain homogenates (Homo sapiens, UniProt P37840)
Construct: Anterior cingulate cortex tissue from a Parkinson’s disease (PD) case; tissue Banner Sun Health Research Institute (Dr. Thomas Beach); host or cells: post-mortem human PD anterior cingulate cortex homogenate
Experiment: Two point screening assay (30 nM and 300 nM) vs [3H]asyn-44 in human PD brain homogenates
Assay type: binding
Details: 300 nM competitor
Reported property: % [3H]asyn-44 remaining at 300 nM
Please don't drop the unit; write it after the number.

stdin: Can you look up % [3H]asyn-44 remaining at 300 nM on α-synuclein (α-syn) aggregates in PD brain homogenates (Homo sapiens, UniProt P37840) for Cn1ccc(-c2cc3nn(-c4cc(N5CCC(F)CC5)ncn4)cc3s2)n1 [LMD-074] ?
stdout: 45%

stdin: Form: Entry = F[C@@H]1CCN(c2cnc(-c3ccc4sc(-c5cncs5)cc4n3)cn2)C1 [LMD-014] | System = α-synuclein (α-syn) aggregates in PD brain homogenates (Homo sapiens, UniProt P37840) | % [3H]asyn-44 remaining at 300 nM = ____
stdout: 20%

Now examine the next entry.
stdin: Missing value: % [3H]asyn-44 remaining at 300 nM, α-synuclein (α-syn) aggregates in PD brain homogenates (Homo sapiens, UniProt P37840), entry FC1CCN(c2cnc(-c3ccc4sc(-c5cncs5)cc4n3)cn2)CC1 [LMD-062] . Fill in?
stdout: 32%

====

Molecular target: α-synuclein (α-syn) aggregates in PD brain homogenates (Homo sapiens)
Construct: Anterior cingulate cortex tissue from a Parkinson’s disease (PD) case; tissue Banner Sun Health Research Institute (Dr. Thomas Beach); host or cells: post-mortem human PD anterior cingulate cortex homogenate
Assay: Two point screening assay (30 nM and 300 nM) vs [3H]asyn-44 in human PD brain homogenates
Assay type: binding
Details: 300 nM competitor
Reported property: % [3H]asyn-44 remaining at 300 nM (%)
Kindly provide the numeric value in % only, without the unit symbol.

Study these solved cases before continuing.
stdin: Name the recorded % [3H]asyn-44 remaining at 300 nM for Cn1ccc(-c2cc3c(cnn3-c3nccc(N4CCC(F)CC4)n3)s2)n1 [LMD-076] .
stdout: 22

stdin: % [3H]asyn-44 remaining at 300 nM for Cn1ccc(-c2cc3c(cnn3-c3cc(N4CCC(F)CC4)ncn3)s2)n1 [LMD-077] ?
stdout: 20

Field: next compound
stdin: Which % [3H]asyn-44 remaining at 300 nM value belongs to O=C1c2ccc(-c3ccc(N4CCC(F)C4)nc3)nc2CN1c1cccnc1 (stereo not drawn) [LMD-019] ?
stdout: 27

====

Molecular target: α-synuclein (α-syn) aggregates in PD brain homogenates (Homo sapiens, UniProt P37840)
Construct: Anterior cingulate cortex tissue from a Parkinson’s disease (PD) case; tissue Banner Sun Health Research Institute (Dr. Thomas Beach); host or cells: post-mortem human PD anterior cingulate cortex homogenate
Test: Two point screening assay (30 nM and 300 nM) vs [3H]asyn-44 in human PD brain homogenates
Assay type: binding
Conditions: 300 nM competitor
In this section, each of the compounds is paired with its reported % [3H]asyn-44 remaining at 300 nM.

Previously resolved entries follow.
stdin: Query: % [3H]asyn-44 remaining at 300 nM; subject: FC1CCC(c2cnc(-n3cc4sccc4n3)cn2)C1 (stereo not shown) [LMD-031]
stdout: 24%

stdin: Which % [3H]asyn-44 remaining at 300 nM is reported for this compound? FC1CCN(c2cnc(-c3ccc4sc(-c5cccnc5)cc4n3)cn2)C1 (stereo not shown) [LMD-009]
stdout: 17%

stdin: Would you mind telling me what % [3H]asyn-44 remaining at 300 nM value was observed for Fc1cc(-c2ccc3sc(-c4cccnc4)cc3n2)cnc1N1CCCC1 [LMD-002] ?
stdout: 21%

stdin: % [3H]asyn-44 remaining at 300 nM lookup needed for FC1CCN(c2ccnc(-n3cc4sc(-c5cccnc5)cc4n3)n2)CC1 [LMD-069] , thanks.
stdout: 31%

stdin: Which value of % [3H]asyn-44 remaining at 300 nM has been reported for FC1CCN(c2cnc(-c3ccc4sccc4n3)cn2)CC1 [LMD-036] in the records?
stdout: 23%

stdin: Requested read-out: % [3H]asyn-44 remaining at 300 nM. Entry: Cn1ccc(-c2cc3nn(-c4ccc(N5CCC(F)C5)nn4)cc3s2)n1 (stereo not shown) [LMD-067]
stdout: 28%

Next item in the queue.
stdin: Recorded % [3H]asyn-44 remaining at 300 nM of Cn1ccc(N2Cc3nc(-c4cnc(N5CCC(F)C5)cn4)ccc3C2=O)n1 (stereo not shown) [LMD-017] , please.
stdout: 25%
